Give measured melting point for each item. Keep answers brief.
Give your result in °C as a bare value.

Query: Which melting point reading was recorded for the compound `CC(C)(C)c1nc2cc(S(=O)(=O)c3ccc(C(N)=O)cc3)ccc2n1CCCC(F)(F)F` ?
Reply: 207.8

Query: Would you mind telling me what melting point value was observed for CC(C)(C)c1nc2cc(S(=O)(=O)Cc3ccc(C(N)=O)cc3)ccc2n1CCCCC(F)(F)F [compound 22] ?
Reply: 222.8

Query: Reported melting point, compound `CC(C)(C)c1nc2cc(S(=O)(=O)Cc3ccc(C#N)cc3)ccc2n1CCCCC(F)(F)F` : ____
Reply: 177.4

Query: Could you tell me which melting point is on file for `COc1ccc(CSc2ccc3c(c2)nc(C(C)(C)C)n3CCCC(F)(F)F)cc1` ?
Reply: 143.2

Query: May I ask what melting point has been recorded for CC(C)(C)c1nc2cc(S(=O)(=O)c3ccncc3)ccc2n1CCCCC(F)(F)F [compound 13] ?
Reply: 147.6

Query: Would you mind telling me what melting point value was observed for CC(C)(C)c1nc2cc(S(=O)(=O)c3ccc(C#N)cc3)ccc2n1CCCCC(F)(F)F [compound 12] ?
Reply: 180.1

* * *

Assayed target: human CB2 (hCB2) receptor (Homo sapiens)
Construct: expressed in transfected cells; host or cells: CHO-K1
Assay: Inhibition of forskolin-activated cAMP production upon activation of human CB2 receptor (HTRF assay, CHO-K1 cells)
Type: cell-based
Measurement parameters: agonism; CHO-K1 cells stably transfected with hCB2; pEC50=-log(EC50); relative to WIN55212-2; read-out: CB-2 pEC50 (converted)
We label by threshold. Values of EC50 strictly beneath 2 nM are Y. Values of 2 nM and up are N.

Query: Is EC50 of CC(C)(C)c1nc2cc([S+]([O-])c3ccc(C#N)cc3)ccc2n1CCCC(F)(F)F (centres unmarked) [compound 7] strictly below 2 nM?
Reply: N

Query: Say whether its EC50 is strictly beneath 2 nM. Entry: CC(C)(C)c1nc2cc(S(=O)(=O)c3ccncc3)ccc2n1CCCC(F)(F)F [compound 4]
Reply: Y

Query: Input COc1ccc(CSc2ccc3c(c2)nc(C(C)(C)C)n3CCCC(F)(F)F)cc1 [compound 1] ; condition: EC50 strictly below 2 nM. Does it hold?
Reply: N

Query: Does this molecule meet the criterion EC50 < 2 nM? CC(C)(C)c1nc2cc(Sc3ccc(C#N)cc3)ccc2n1CCCC(F)(F)F [compound 9]
Reply: Y

Query: Is it true that EC50 reported for CC(C)(C)c1nc2cc(S(=O)(=O)c3cn[nH]c3)ccc2n1CCCC(F)(F)F [compound 5] is less than 2 nM?
Reply: Y

Query: Does the reported EC50 of the following molecule sit strictly below 2 nM? CC(C)(C)c1nc2cc(S(=O)(=O)C3CCNC3=O)ccc2n1CCCCC(F)(F)F (centres unmarked) [compound 23]
Reply: N

* * *

I'd be grateful if you could share measured EC50 for these entries.
Assayed target: human CB2 (hCB2) receptor (Homo sapiens, UniProt P34972)
Construct: expressed in transfected cells; host or cells: CHO-K1
Sequence (P34972 whole entry): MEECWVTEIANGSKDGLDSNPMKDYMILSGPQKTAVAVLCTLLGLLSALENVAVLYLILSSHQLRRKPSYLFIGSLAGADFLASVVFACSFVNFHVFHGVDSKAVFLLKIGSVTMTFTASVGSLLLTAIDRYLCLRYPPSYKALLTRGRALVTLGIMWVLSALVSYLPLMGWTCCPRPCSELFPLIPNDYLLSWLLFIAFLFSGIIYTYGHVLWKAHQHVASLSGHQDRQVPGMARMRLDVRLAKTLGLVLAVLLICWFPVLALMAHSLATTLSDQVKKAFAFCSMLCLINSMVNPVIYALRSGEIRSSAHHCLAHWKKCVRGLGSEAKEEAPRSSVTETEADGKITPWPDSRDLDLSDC
Assay: Inhibition of forskolin-activated cAMP production upon activation of human CB2 receptor (HTRF assay, CHO-K1 cells)
Format: cell-based
Measurement parameters: agonism; CHO-K1 cells stably transfected with hCB2; pEC50=-log(EC50); relative to WIN55212-2; read-out: CB-2 pEC50 (converted)

Query: Sample `CC(C)(C)c1nc2cc(S(=O)(=O)c3ccc(C#N)cc3)ccc2n1CCCCC(F)(F)F` — what was its EC50?
Reply: 1 nM

Query: Entry under review: `CC(C)(C)c1nc2cc(S(=O)(=O)C(F)(F)c3ccc(C#N)cc3)ccc2n1CCCCC(F)(F)F` . Reported EC50?
Reply: 3.16 nM

Query: Dear colleague, I am looking for the recorded EC50 of the following molecule: `CC(C)(C)c1nc2cc(S(=O)(=O)c3ccc(C(N)=O)cc3)ccc2n1CCCC(F)(F)F`
Reply: 3.16 nM

Query: Sample `CC(C)(C)c1nc2cc(S(=O)(=O)Cc3ccc(C#N)cc3)ccc2n1CCCCC(F)(F)F` — what was its EC50?
Reply: 2 nM

These measurements were taken from patent US20100273831A1.
